Data credit: paper PMC5700166

Biological target: GST-Nv-NF-kB (Ser allele) (Nematostella vectensis, UniProt A7UNT2 2-411)
Sequence: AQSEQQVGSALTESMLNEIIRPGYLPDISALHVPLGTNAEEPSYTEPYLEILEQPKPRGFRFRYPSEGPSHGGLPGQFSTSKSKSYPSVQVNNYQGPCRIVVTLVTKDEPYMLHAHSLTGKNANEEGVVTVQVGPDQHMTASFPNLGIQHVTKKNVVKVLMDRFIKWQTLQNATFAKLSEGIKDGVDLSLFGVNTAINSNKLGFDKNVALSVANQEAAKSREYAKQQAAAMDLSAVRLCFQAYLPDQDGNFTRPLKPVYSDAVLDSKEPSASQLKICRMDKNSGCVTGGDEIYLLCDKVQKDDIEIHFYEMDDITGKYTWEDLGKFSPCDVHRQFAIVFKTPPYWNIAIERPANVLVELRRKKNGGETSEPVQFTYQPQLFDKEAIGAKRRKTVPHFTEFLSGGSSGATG
Test: protein-binding microarray (PBM); PBM: ~300 nM protein, 6 mM HEPES pH 7.8, 80 mM KCl, 0.5 mM EDTA, 0.5 mM EGTA, 6% glycerol, 35 ng/ul poly-dIdC, 1% milk, 1 h, room temperature; Ap Aiptasia and Nv Nematostella (sea anemones) / Co Capsaspora / Aq Amphimedon (sponge) / Dm Drosophila / Hu human; RHD is the Rel homology domain; high values mean tight binding
Details: dsDNA, one strand shown
For each of the sequences below, state its binding signal.
One number for each entry, in z-score.

Worked set:
CCGATTAACATCAAGGGGGATTCTGATGTTAATCGGGTCTTGATTCGCTTGACGCTGCTG: 10.3
CCGATTAACATCACGGCATTCCCTGATGTTAATCGGGTCTTGATTCGCTTGACGCTGCTG: 2.35
CCGATTAACATCAAATTTCCCGATGATGTTAATCGGGTCTTGATTCGCTTGACGCTGCTG: 3.94
CCGATTAACATCACAGATTTCCCTGATGTTAATCGGGTCTTGATTCGCTTGACGCTGCTG: 7.17
CCGATTAACATCACCCCTTCCCCTGATGTTAATCGGGTCTTGATTCGCTTGACGCTGCTG: 4.86
CCGATTAACATCAGGCAACCCCCTGATGTTAATCGGGTCTTGATTCGCTTGACGCTGCTG: 3.97
CCGATTAACATCACGGGGTTTCCTGATGTTAATCGGGTCTTGATTCGCTTGACGCTGCTG: 2.69
CCGATTAACATCAAAAAAGCCCCTGATGTTAATCGGGTCTTGATTCGCTTGACGCTGCTG: 9.29
CCGATTAACATCACATGTTTCCCTGATGTTAATCGGGTCTTGATTCGCTTGACGCTGCTG: 4.21
CCGATTAACATCAAAAATCCCCCTGATGTTAATCGGGTCTTGATTCGCTTGACGCTGCTG: 12.8

Consider now this further sequence.
Q: What measured binding signal goes with CCGATTAACATCACCCGCCCCCCTGATGTTAATCGGGTCTTGATTCGCTTGACGCTGCTG ?
Ans: 2.95
